Record form. Attribute: AUC(0-t). Fill in for each entry.
# Test: Pharmacokinetic tests in male SD rats
# Assay type: in vivo
# Setup Conditions: rat, oral gavage (po), 10 mg/kg, plasma
One number for each entry, in ng·h/mL.

// known answers, use as guide
>>> recorded_value("CCc1cc(Nc2ncc(Cl)c(Nc3ccccc3P(C)(C)=O)n2)c(OC)cc1N1CC2(CCN(C(=O)CN3CCC(c4cc5c(cc4F)c(N4CCC(=O)NC4=O)nn5C)CC3)CC2)C1")
5030
>>> recorded_value("CCc1cc(Nc2ncc(Cl)c(Nc3ccccc3P(C)(C)=O)n2)c(OC)cc1N1CC2(CCN(C(=O)CN3CCC(c4cc5c(cc4F)c(N4CCC(=O)NC4=O)nn5C)C(F)(F)C3)CC2)C1 (stereo not drawn)")
3920
>>> recorded_value("CCc1cc(Nc2ncc(Br)c(Nc3ccccc3P(C)(C)=O)n2)c(OC)cc1N1CCN(C(=O)CN2CCC(c3cc4c(cc3F)c(N3CCC(=O)NC3=O)nn4C)C(F)(F)C2)CC1 (stereo not drawn)")
5590
>>> recorded_value("CCc1cc(Nc2ncc(Cl)c(Nc3ccccc3P(C)(C)=O)n2)c(OC)cc1N1CCN(C(=O)CN2CCC(c3cc4c(cc3F)c(N3CCC(=O)NC3=O)nn4C)C(F)(F)C2)CC1 (stereo not drawn)")
7530
>>> recorded_value("COc1cc(N2CCC(CN3CCN(c4ccc5c(c4)C(=O)N(C4CCC(=O)NC4=O)C5=O)CC3)CC2)c(-c2cnn(C)c2)cc1Nc1ncc(Br)c(Nc2ccc(C3CC3)cc2P(C)(C)=O)n1 (stereo not drawn) [DZL-1, reference compound]")
8070

Can you give me AUC(0-t) for all of these, one by one?
1. CCc1cc(Nc2ncc(Cl)c(Nc3ccccc3P(C)(C)=O)n2)c(OC)cc1N1CCN(C(=O)CN2CCC(c3cc4c(cc3F)c(N3CCC(=O)NC3=O)nn4C)CC2)CC1
2. CCc1cc(Nc2ncc(Br)c(Nc3ccccc3P3(=O)CCCC3)n2)c(OC)cc1N1CC2(CCN(C(=O)CN3CCC(c4cc5c(cc4F)c(N4CCC(=O)NC4=O)nn5C)C(F)(F)C3)CC2(F)F)C1 (stereo not drawn)
3. CCc1cc(Nc2ncc(Cl)c(Nc3ccccc3C(=O)NC)n2)c(OC)cc1N1CCN(C(=O)CN2CCC(c3cc4c(cc3F)c(N3CCC(=O)NC3=O)nn4C)C(F)(F)C2)CC1 (stereo not drawn)
4. CCc1cc(Nc2ncc(Cl)c(Nc3ccccc3P(C)(C)=O)n2)c(OC)cc1N1CCN(CCN2CCC(c3cc4c(cc3F)c(N3CCC(=O)NC3=O)nn4C)C(F)(F)C2)CC1 (stereo not drawn)

Result:
1: 8070; 2: 5730; 3: 3770; 4: 7840
